- Experiment Summary: chemical genetic growth profiling, strain panel (AID 1159580);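 note: tested at 20 µM; growth read once vehicle control cultures reached saturation at 30 °C; 1 = growth at the plate median or of vehicle wells; lower values mean less growth of the strain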
- Experimental Context: S. cerevisiae deletion strains, growth OD, locus YHR013C, strain ard1, active compounds read low
Among all 5,500 compounds or so, about 2,000 (36%) were called active. Not shown: some 18% with an inconclusive outcome. Some of the results follow.
Endpoint Label: normalized growth
Please state the value as a number alone, without comment.

Here is how some molecules turned out for normalized growth.
[
  {
    "Molecule": "CCCN(CCC)S(=O)(=O)c1ccc(C(=O)O)cc1",
    "normalized growth": 0.986
  },
  {
    "Molecule": "Cc1nc(N)cc(C[n+]2csc(CCO)c2C)n1",
    "normalized growth": 0.986
  },
  {
    "Molecule": "CN(C)[C@@H]1C(=O)C(C(N)=O)=C(O)[C@@]2(O)C(=O)C3=C(O)c4c(O)cccc4[C@@](C)(O)[C@H]3[C@H](O)[C@@H]12",
    "normalized growth": 1
  }
]

QUERY: Look up normalized growth for this molecule: `O=C(O)c1cccnc1`
RESULT: 1.04

QUERY: Look up normalized growth for this molecule: `O=C(O)c1cc(O)c2c(c1)[C@@H]([C@H]1c3cc(C(=O)O)cc(O)c3C(=O)c3c(O[C@H]4O[C@H](CO)[C@@H](O)[C@H](O)[C@H]4O)cccc31)c1cccc(O[C@H]3O[C@H](CO)[C@@H](O)[C@H](O)[C@H]3O)c1C2=O`
RESULT: 1.06

QUERY: Look up normalized growth for this molecule: `CN(C)[C@@H]1C(=O)C(C(=O)NCN2CCCC2)=C(O)[C@@]2(O)C(=O)C3=C(O)c4c(O)cccc4[C@@](C)(O)[C@H]3C[C@@H]12`
RESULT: 1

QUERY: Look up normalized growth for this molecule: `C=C1c2c(Cl)ccc(O)c2C(O)=C2C(=O)[C@]3(O)C(O)=C(C(N)=O)C(=O)[C@@H](N(C)C)[C@@H]3[C@@H](O)[C@H]12`
RESULT: 0.975

QUERY: Look up normalized growth for this molecule: `COC(=O)c1c(OC)cc2c(c1C)Oc1c(Cl)c(OC(C)=O)c(Cl)c(C)c1C(=O)O2`
RESULT: 0.966

QUERY: Look up normalized growth for this molecule: `C=C1c2cccc(O)c2C(O)=C2C(=O)[C@]3(O)C(O)=C(C(N)=O)C(=O)[C@@H](N(C)C)[C@@H]3[C@@H](O)[C@H]12`
RESULT: 1.02

---

- Experiment Summary: chemical genetic growth profiling, strain panel (AID 1159580);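 note: tested at 20 µM; growth read once vehicle control cultures reached saturation at 30 °C; 1 = growth at the plate median or of vehicle wells; lower values mean less growth of the strain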
- Experimental Context: S. cerevisiae deletion strains, growth OD, locus YNR052C, strain pop2
The whole screen tested about 5,500 compounds, of which about 2,000 (36%) were called active. About 18% were inconclusive and are not listed. Cut-off read from the data, not from the text of the source: active = normalized growth mostly below about 0.91 (no sharp cut-off); inconclusive = no clear call, values can overlap the other calls; inactive = mostly above about 0.92. The list shows a part of the results.
The reply should be one of these categories: active, inactive

See these solved cases before continuing.
[
  {
    "Molecule": "CN(C)[C@@H]1C(=O)C(C(N)=O)=C(O)[C@@]2(O)C(=O)C3=C(O)c4c(O)ccc(Cl)c4[C@@](C)(O)[C@H]3C[C@@H]12",
    "Answer Label": "inactive"
  },
  {
    "Molecule": "COC(=O)c1c(C)c2c(c(C)c1OC)OC(=O)c1c(C)c(Cl)c(OC)c(Cl)c1O2",
    "Answer Label": "inactive"
  },
  {
    "Molecule": "COC(=O)c1c(C)c2c(c(C)c1O)OC(=O)c1c(C)c(Cl)c(O)c(Cl)c1O2",
    "Answer Label": "inactive"
  },
  {
    "Molecule": "CCN(CC)CCOC(=O)C(c1ccccc1)C1CCCCC1 (configuration not stated)",
    "Answer Label": "inactive"
  },
  {
    "Molecule": "CCOC(=O)NNc1nncc2ccccc12",
    "Answer Label": "inactive"
  }
]

QUERY: I would be grateful if you could indicate the recorded call for `CNNC` .
RESULT: inactive

QUERY: I would be grateful if you could indicate the recorded call for `O=C(O)c1cccnc1` .
RESULT: inactive

QUERY: I would be grateful if you could indicate the recorded call for CC(C)=CC1C(C(=O)O)C1(C)C (configuration not stated) .
RESULT: inactive

QUERY: I would be grateful if you could indicate the recorded call for `CCCN(CCC)S(=O)(=O)c1ccc(C(=O)O)cc1` .
RESULT: inactive
